This collection of values is drawn from PubChem BioAssay (NCI).

- experimentNotes: NCI Yeast Anticancer Drug Screen. Data for the bub3 strain (AID 167)
- cond: S. cerevisiae bub3 mutant strain, at 5.0 µM (retest, dose inferred, filed as 0.5), hits give high values
The panel holds about 79,000 compounds, 15% with a hit somewhere; the sample as a whole holds those more often.
testReadout: growth inhibition (%)
Answer format: numeric, % implied, no suffix.

Completed entries (count: 5):
In [3]: df
Out[3]:
                                   molecule  recordedvalue
0                    NC(=O)SCC(=O)Nc1ccccc1              3
1  COc1cc2c(c(C)c1O)[C@H]1COc3ccccc3[C@H]1O2             10
2           O=C(/C=C/c1cccnc1)c1cc(Cl)ccc1O              1
3                  O=[N+]([O-])c1ccccc1NCCO              3
4  COC(=O)CCC(=O)c1ccc2c(c1)CC1(Cc3ccccc3C1)C2             25

Prompt: // lookup growth inhibition for CC(C)SC(=S)Nc1ccc(Cl)c([N+](=O)[O-])c1
Response: 12

Prompt: Quick one: CN(C)C1=C(Cl)C(=O)c2ccccc2C1=O
Response: 14

Prompt: Further, for COc1ccc(-c2nc(C)[nH]c(=O)c2Cc2c(O)ccc3ccccc23)cc1 ?
Response: 0

Prompt: Entry COc1ccc(OC2OC(COC(c3ccccc3)(c3ccc(OC)cc3)c3ccc(OC)cc3)C(O)C(O)C2O)cc1 (configuration not stated) please
Response: 4
